- TARGET ENTITY: human DHODH (Homo sapiens (Human), UniProt Q02127)
- Sequence (Q02127 whole entry): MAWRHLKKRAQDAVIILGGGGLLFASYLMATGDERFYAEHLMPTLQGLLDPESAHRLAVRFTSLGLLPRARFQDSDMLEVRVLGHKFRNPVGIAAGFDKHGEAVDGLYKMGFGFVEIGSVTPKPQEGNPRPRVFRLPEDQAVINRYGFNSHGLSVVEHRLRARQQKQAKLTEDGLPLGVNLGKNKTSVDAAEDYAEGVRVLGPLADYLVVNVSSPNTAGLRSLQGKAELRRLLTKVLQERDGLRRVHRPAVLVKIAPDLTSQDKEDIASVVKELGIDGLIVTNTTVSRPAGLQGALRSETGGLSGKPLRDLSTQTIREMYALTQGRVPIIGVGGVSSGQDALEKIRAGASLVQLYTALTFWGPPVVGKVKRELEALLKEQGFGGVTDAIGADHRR
pIC50: −log10 of the molar value.
Values of pIC50 greater than or equal to 9 map to satisfied; values below map to not satisfied.

Below are worked cases with known answers.
CCn1c(CO)nn(-c2ccc3c(=O)n(-c4ccccc4C)cc(N(C)C)c3c2)c1=O = not satisfied
CCn1c(CO)nn(-c2ccc3c(=O)n(-c4c(F)cccc4Cl)cc(C4CC4)c3c2)c1=O = not satisfied
CCn1c(CO)nn(-c2cc3c(C(C)C)cn(C(COC)COC)c(=O)c3cc2F)c1=O = not satisfied
C=C(C)c1cn(-c2c(F)cccc2Cl)c(=O)c2cc(F)c(-n3nc(CO)n(CC)c3=O)cc12 = satisfied
CCn1c(CO)nn(-c2cc3c(C(C)C)cn(-c4cc(OC)ccc4F)c(=O)c3cc2F)c1=O = not satisfied

Q) Given the entry CCn1c(CO)nn(-c2cc3c(C(C)C)cn(-c4ccnc(OC)c4C)c(=O)c3cc2F)c1=O , answer whether its pIC50 meets or surpasses 9.
A) not satisfied

Q) Given the entry CCn1c(CO)nn(-c2cc3c(C(C)C)nn(-c4c(F)cccc4Cl)c(=O)c3cc2F)c1=O , answer whether its pIC50 meets or surpasses 9.
A) satisfied
